Target System: human P2X3 receptor (Homo sapiens (Human))
Assay Explanation: P2X3 receptor inhibition, ATP-evoked Fluo-3 calcium fluorescence (FDSS 3000)
Format: cell-based
Cond: C6BU-1 cell transfected with human P2X3 receptor gene; ATP-evoked Fluo-3 fluorescence
Readout Kind: IC50 (nM)

>>> recorded_measurement("Cc1nc(-c2ccc(N3C(=O)C(O)=C(C(=O)C(C)C)C3c3ccccc3OC(F)F)cc2)no1 (stereo not drawn)")
320
>>> recorded_measurement("COCCNC(=O)c1ncccc1C1C(C(=O)CC(C)C)=C(O)C(=O)N1c1ccc(-c2ccc(C)s2)cc1 (stereo not drawn)")
466
>>> recorded_measurement("COc1ccccc1C1c2c(C(C)(C)C)n[nH]c2C(=O)N1c1ccc(-c2ccsc2)cn1 (stereo not drawn)")
13
>>> recorded_measurement("CCc1ccccc1C1C(C(=O)C(C)(C)C)=C(O)C(=O)N1c1ccc(-c2ccon2)cc1 (stereo not drawn)")
341

a: O=C(C1=C(O)C(=O)N(c2ccc(-c3ccon3)cc2)C1C1CCCCC1)c1ccc(Br)cc1 (stereo not drawn)
b: COCCOc1ncccc1C1c2c(C(C)(C)C)n[nH]c2C(=O)N1c1ccc(-c2ccco2)cc1 (stereo not drawn)
input: // returns a or b , whichever has the lower IC50 API: response body contains the label of the selected item.
output: b
(b: 8 nM, a: 79 nM)

a: Cc1ccc(-c2ccc(N3C(=O)C(O)=C(C(=O)C(C)C)C3c3ccccc3OC(F)F)cc2)s1 (stereo not drawn)
b: CC(C)(C)C(=O)C1=C(O)C(=O)N(c2ccc(-c3ccsc3)cc2)C1c1cccc[n+]1[O-] (stereo not drawn)
c: CC(C)COc1ccccc1C1C(C(=O)C(C)C)=C(O)C(=O)N1c1ccc(-c2ccon2)cc1 (stereo not drawn)
d: CCNC(=O)c1ncccc1C1C(C(=O)CC(C)C)=C(O)C(=O)N1c1ccc(-c2ccc(C)s2)cc1 (stereo not drawn)
e: CCOC(=O)C(C)(C)C(=O)C1=C(O)C(=O)N(c2ccc(-c3csc(C)c3)cc2)C1c1ccccc1OC (stereo not drawn)
input: rank_up(items): orders items by reported IC50 in ascending numerical order. Respond with an ordered listing of the labels, as requested.
output: c, a, d, b, e
(c: 36 nM, a: 58 nM, d: 237 nM, b: 424 nM, e: 972 nM)

* * *

Target System: human P2X3 receptor (Homo sapiens (Human), UniProt P56373)
Sequence (P56373 whole entry): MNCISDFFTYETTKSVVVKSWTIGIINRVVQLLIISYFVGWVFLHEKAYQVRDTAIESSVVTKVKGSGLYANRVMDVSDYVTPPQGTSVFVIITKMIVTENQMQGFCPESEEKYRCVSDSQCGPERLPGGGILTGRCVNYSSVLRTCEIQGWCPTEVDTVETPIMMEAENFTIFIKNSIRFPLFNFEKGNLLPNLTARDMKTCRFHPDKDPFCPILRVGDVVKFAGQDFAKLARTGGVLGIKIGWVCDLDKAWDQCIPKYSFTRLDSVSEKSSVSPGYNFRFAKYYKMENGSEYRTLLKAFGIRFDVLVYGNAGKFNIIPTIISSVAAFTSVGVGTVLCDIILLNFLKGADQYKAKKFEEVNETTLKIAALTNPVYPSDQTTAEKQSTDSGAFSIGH
Assay Explanation: P2X3 receptor inhibition, ATP-evoked Fluo-3 calcium fluorescence (FDSS 3000)
Cond: C6BU-1 cell transfected with human P2X3 receptor gene; ATP-evoked Fluo-3 fluorescence
pIC50: −log10 of the molar value.
Readout Kind: pIC50

>>> recorded_measurement("COc1ccccc1C1c2c(C(C)(CO)CO)n[nH]c2C(=O)N1c1ccc(-c2ccsc2)cc1 (stereo not shown) [II-266]")
8.15

P: COc1ncccc1C1c2c(C(C)(C)C)n[nH]c2C(=O)N1c1ccc(-c2ccco2)nc1 (stereo not shown) [II-271]
Q: Cc1cc(-c2ccc(N3C(=O)C(O)=C(C(=O)CC(C)C)C3c3ccccc3OC(F)(F)F)cc2)on1 (stereo not shown) [Compound I-344]
R: COc1ncccc1C1c2c(C(C)(C)C)n[nH]c2C(=O)N1c1ccc(-c2cccs2)nc1 (stereo not shown) [II-270]
input: rank_up(items): orders items by reported pIC50 in ascending numerical order. Respond with an ordered listing of the labels, as requested.
output: Q, P, R
(Q: 6.23, P: 6.82, R: 7.60)

P: COCOc1ccccc1C1C(C(=O)CC(C)C)=C(O)C(=O)N1c1ccc(-c2ccoc2)cc1 (stereo not shown) [Compound I-349]
Q: COCc1ccccc1[C@@H]1C(C(=O)C(C)C)=C(O)C(=O)N1c1ccc(-c2csc(C)c2)cc1 [Compound I-455]
R: CN(C)c1ccccc1C1c2c(C(C)(C)C)n[nH]c2C(=O)N1c1ccc(-c2ccon2)cc1 (stereo not shown) [II-119]
S: COc1ccccc1C1c2c(C(C)(C)CO)n[nH]c2C(=O)N1c1nc2ccccc2s1 (stereo not shown) [II-139]
T: COc1ccc(CC(=O)C2=C(O)C(=O)N(c3ccc(-c4noc(C)n4)cc3)C2C2CCCCC2)cc1 (stereo not shown) [Compound I-331]
input: rank_up(items): orders items by reported pIC50 in ascending numerical order. Respond with an ordered listing of the labels, as requested.
output: T, S, R, P, Q
(T: 6.14, S: 6.48, R: 6.86, P: 7.43, Q: 7.85)

I: COc1ccccc1C1c2c(C(C)(C)CO)n[nH]c2C(=O)N1c1ccc(SC)cc1 (stereo not shown) [II-009]
II: CNC(=O)COc1ncccc1C1C(C(=O)C(C)C)=C(O)C(=O)N1c1ccc(-c2ccsc2)cc1 (stereo not shown) [Compound I-199]
input: // returns I or II , whichever has the lower pIC50 API: response body contains the label of the selected item.
output: I
(I: 7.27, II: 7.72)

A: COc1ccc(C(=O)C2=C(O)C(=O)N(c3ccc(-c4nnc(C)o4)cc3)C2c2ccccc2OC)cc1 (stereo not shown) [Compound I-033]
B: COc1ncccc1C1C(C(=O)C(C)(C)C)=C(O)C(=O)N1c1ccc(-c2cccs2)cc1 (stereo not shown) [Compound I-115]
C: COCc1ccccc1C1C(C(=O)C(C)C)=C(O)C(=O)N1c1ccc(-c2cc(C)on2)cc1 (stereo not shown) [Compound I-458]
D: COc1ccccc1C1C(C(=O)C(C)C)=C(O)C(=O)N1c1ccc(SC)cc1 (stereo not shown) [Compound I-473]
E: COCOc1ccccc1C1C(C(=O)CC(C)C)=C(O)C(=O)N1c1ccc(-c2ccsc2)cc1 (stereo not shown) [Compound I-249]
input: Descending sort on pIC50 required. Respond with an ordered listing of the labels, as requested.
output: E, A, B, D, C
(E: 8.00, A: 7.28, B: 6.97, D: 6.74, C: 6.16)

A: COc1ccc(S(=O)(=O)C2=C(O)C(=O)N(c3ccc(-c4noc(C)n4)cc3)C2C2CCCCC2)cc1 (stereo not shown) [Compound I-560]
B: CC(C)(CO)c1n[nH]c2c1C(c1ccccn1)N(c1ccc(-c3ccsc3)cc1)C2=O (stereo not shown) [II-234]
input: Kindly identify which of A and B has the larger recorded pIC50 value. API: response body contains the label of the selected item.
output: B

I: COc1ncccc1C1C(C(=O)CC(C)C)=C(O)C(=O)N1c1ccc(-c2csc(C)c2)cc1 (stereo not shown) [Compound I-371]
II: COCCOc1ccccc1C1C(C(=O)CC(C)C)=C(O)C(=O)N1c1ccc(-c2cscn2)cc1 (stereo not shown) [Compound I-421]
input: Kindly identify which of I and II has the larger recorded pIC50 value. API: response body contains the label of the selected item.
output: II
(II: 6.72, I: 6.35)

P: C/N=C1/CC(C)(C)C(=O)OC2=C1C(c1ccccc1OC)N(c1ccc(-c3ccsc3)cc1)C2=O (stereo not shown) [Compound I-587]
Q: COCOc1ccccc1C1C(C(=O)C(C)C)=C(O)C(=O)N1c1ccc(-c2ccco2)cc1 (stereo not shown) [Compound I-230]
R: COc1ccccc1C1c2c(C(C)(C)C)n[nH]c2C(=O)N1c1ccc(-c2cc(NC(C)=O)no2)cc1 (stereo not shown) [II-147]
S: COc1ccccc1C1c2c(C(C)(C)C)n[nH]c2C(=O)N1c1ccc(-c2ncco2)cc1 (stereo not shown) [II-209]
input: rank_up(items): orders items by reported pIC50 in ascending numerical order. Respond with an ordered listing of the labels, as requested.
output: R, P, S, Q
(R: 6.01, P: 6.43, S: 7.06, Q: 7.74)

A: COCCOc1ncccc1C1C(C(=O)C2CCCC2)=C(O)C(=O)N1c1ccc(-c2noc(C)n2)cc1 (stereo not shown) [Compound I-523]
B: COc1ccccc1C1c2c(C(C)(C)C)n[nH]c2C(=O)N1c1ccc(-c2ccoc2)nc1 (stereo not shown) [II-253]
input: // returns A or B , whichever has the lower pIC50 API: response body contains the label of the selected item.
output: A

* * *

Target System: human P2X3 receptor (Homo sapiens (Human), UniProt P56373)
Assay Explanation: P2X3 receptor inhibition, ATP-evoked Fluo-3 calcium fluorescence (FDSS 3000)
Cond: C6BU-1 cell transfected with human P2X3 receptor gene; ATP-evoked Fluo-3 fluorescence
pIC50: −log10 of the molar value.
Readout Kind: pIC50

>>> recorded_measurement("CC(C)(C)c1n[nH]c2c1C(c1ccccc1OCC(=O)O)N(c1ccc(-c3cccs3)cc1)C2=O (stereo not shown)")
8.40

a: CC(C)(C)c1n[nH]c2c1C(c1ccccc1S(C)(=O)=O)N(c1ccc(-c3ccon3)cc1)C2=O (stereo not shown)
b: COc1ncccc1C1C(C(=O)CC(C)C)=C(O)C(=O)N1c1ccc(-c2ccsc2)cc1 (stereo not shown)
c: CC(C)Oc1ccccc1C1C(C(=O)C(C)C)=C(O)C(=O)N1c1ccc(-c2csnn2)cc1 (stereo not shown)
input: Descending sort on pIC50 required. Respond with an ordered listing of the labels, as requested.
output: c, b, a

A: COCCN(C)C(=O)c1ccccc1C1C(C(=O)C(C)C)=C(O)C(=O)N1c1ccc(-c2ccc(C)o2)cc1 (stereo not shown)
B: CC(C)CC(=O)C1=C(O)C(=O)N(c2ccc(-c3ccsc3)cc2)C1c1ccccc1OC(C)C (stereo not shown)
input: Kindly identify which of A and B has the larger recorded pIC50 value. API: response body contains the label of the selected item.
output: B
(B: 7.92, A: 6.60)

Reference source for all entries: patent US8575197B2
